target.or.system: MAPK6 (human)
run.description: KINOMEscan competition binding
study.conditions: compound 10.0 µM
measured.endpoint: kinase still bound, per cent of control (%)

>>> quantitative_readout("CC(C)n1nc(-c2cc3cc(O)ccc3[nH]2)c2c(N)ncnc21")
52
>>> quantitative_readout("CCC(=O)N1CCN(c2ccc(-n3c(=O)ccc4cnc5ccc(-c6cnc7ccccc7c6)cc5c43)cc2C(F)(F)F)CC1")
1.8
>>> quantitative_readout("COC(=O)Nc1ccc(-c2nc(N3CCOCC3)c3cnn(C4CCN(C(=O)OC)CC4)c3n2)cc1")
100
>>> quantitative_readout("COc1ccc(-c2ccc3c(N4CCOCC4)nc(N4C[C@@H](C)O[C@@H](C)C4)nc3n2)cc1CO")
84
